The reported numbers originate from patent US11021518B2.

Bridge positions count the residues as written; N and C are the ends. Peptide text beside a SMILES is read from it.
Form: system (TACE (Homo sapiens, UniProt P78536)), quantity (pIC50), values below.
The meaning of pIC50 here: minus log10 of the concentration in molar units.

Inquiry: Retrieve pIC50 measured for CC[C@H](C)[C@@H]1NC(=O)[C@@H]2CSSC[C@H](NC(=O)[C@H]([C@@H](C)CC)NC(=O)[C@@H]3CSSC[C@H](NC1=O)C(=O)NCC(=O)N[C@@H](CCCNC(=N)N)C(=O)NCC(=O)N[C@@H](C(C)C)C(=O)N3)C(=O)N[C@@H](CCCNC(=N)N)C(=O)N[C@@H](CCCNC(=N)N)C(=O)N[C@@H](CCCNC(=N)N)C(=O)N[C@@H](C(C)C)C(=O)N2 [MTD12813] (cyclo(CGRGVCICRRRVCI); disulfide 1-6, 8-13) and print it.
Reply text: 6.26

Inquiry: Consider the compound CC(C)[C@@H]1NC(=O)CNC(=O)[C@H](CCCNC(=N)N)NC(=O)[C@H](CCCNC(=N)N)NC(=O)[C@@H]2CSSC[C@H](NC1=O)C(=O)N[C@@H](C)C(=O)N[C@H]1CSSC[C@H](NC(=O)[C@H](Cc3ccccc3)NC(=O)[C@H](CCCNC(=N)N)NC(=O)[C@H](CCCNC(=N)N)NC(=O)[C@H](CCCNC(=N)N)NC1=O)C(=O)N[C@@H](C)C(=O)N2 [MTD1289] (cyclo(ACRRGVCACRRRFC); disulfide 2-7, 9-14) . State its measured pIC50.
Reply text: 5.78

Inquiry: Read off the recorded pIC50 for CC(C)C[C@@H]1NC(=O)[C@@H]2CSSC[C@H](NC(=O)[C@H](CC(C)C)NC(=O)[C@@H]3CSSC[C@H](NC1=O)C(=O)N[C@@H](CCCNC(=N)N)C(=O)N[C@@H](CCCNC(=N)N)C(=O)NCC(=O)N[C@@H](C(C)C)C(=O)N3)C(=O)N[C@@H](CCCNC(=N)N)C(=O)N[C@@H](CCCNC(=N)N)C(=O)NCC(=O)N[C@@H](C(C)C)C(=O)N2 [MTD1284] (cyclo(CLCRRGVCLCRRGV); disulfide 1-10, 3-8)
Reply text: 6.14
